# TARGET OR TEST SYSTEM: binding of CBFβ to RUNX1 in SEM cells (Homo sapiens (Human), UniProt Q13951)
# Sequence (Q13951 whole entry): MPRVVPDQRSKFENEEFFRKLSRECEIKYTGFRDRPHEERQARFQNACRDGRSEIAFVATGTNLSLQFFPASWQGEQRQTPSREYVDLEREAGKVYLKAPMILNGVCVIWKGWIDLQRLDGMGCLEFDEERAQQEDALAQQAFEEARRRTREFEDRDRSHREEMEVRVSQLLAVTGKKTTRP
# METHOD DESCRIPTION: Co-immunoprecipitation of CBFβ with RUNX1 in SEM cells
# Type: cell-based
# CONDITIONS USED: 10 μM, 6 hours
REPORTED METRIC: RUNX1-bound CBFβ (co-immunoprecipitation)

COc1cc(OCCN2CCOCC2)cnc1-c1nc2cc(OC(F)(F)F)ccc2[nH]1	reduction in binding
COc1cccnc1-c1nc2cc(OC(F)(F)F)ccc2[nH]1	reduction in binding
FC(F)(F)Oc1ccc2[nH]c(-c3ccc(OCCN4CCOCC4)cn3)nc2c1	reduction in binding
